- tested_target: NAMPT (Homo sapiens)
- Construct: His tag; host or cells: E. coli
- Sequence (P43490 whole entry): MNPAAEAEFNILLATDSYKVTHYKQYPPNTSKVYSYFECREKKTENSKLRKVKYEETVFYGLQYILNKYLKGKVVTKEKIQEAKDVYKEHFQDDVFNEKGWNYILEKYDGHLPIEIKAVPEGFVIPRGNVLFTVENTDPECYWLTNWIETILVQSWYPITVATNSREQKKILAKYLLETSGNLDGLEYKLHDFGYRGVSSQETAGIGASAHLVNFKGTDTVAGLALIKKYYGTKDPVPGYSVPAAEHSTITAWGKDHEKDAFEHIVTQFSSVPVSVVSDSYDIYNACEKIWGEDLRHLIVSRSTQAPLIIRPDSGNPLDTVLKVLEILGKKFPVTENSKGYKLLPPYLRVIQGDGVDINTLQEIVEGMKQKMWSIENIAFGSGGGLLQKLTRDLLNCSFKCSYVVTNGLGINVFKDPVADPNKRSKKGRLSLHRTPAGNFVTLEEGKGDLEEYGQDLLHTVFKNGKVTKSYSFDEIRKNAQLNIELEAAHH
- measurement_notes: Biochemical inhibition assay: NAMPT enzymatic reaction, NMN quantified by mass spectrometry
- condition: NAMPT enzymatic reaction; read-out: Biochem IC50
quantity_kind: pIC50
Give bare numbers, as −log10 of the molar value.

Look over these answered cases.
{"chemical_structure": "Cc1cccc(S(=O)(=O)c2ccc(CNC(=O)c3cnc4nccn4c3)cc2)c1", "pIC50": 8.72}
{"chemical_structure": "O=C(NCc1ccc(S(=O)(=O)c2ccc(Cl)c(F)c2)cc1)c1cc2ccncc2s1", "pIC50": 8.52}
{"chemical_structure": "CC(C)(C)c1cccc(S(=O)(=O)c2ccc(CNC(=O)c3cc4ccncc4s3)cc2)c1", "pIC50": 7.98}
{"chemical_structure": "O=C(NCc1ccc(S(=O)(=O)c2ccc(Cl)c(C(F)(F)F)c2)cc1)c1cc2cnccc2[nH]1", "pIC50": 8.10}

Dear colleague, could you please provide pIC50 for the compounds listed below?
1. CCOc1ccc(S(=O)(=O)c2ccc(CNC(=O)c3cc4ccncc4s3)cc2)cc1F
2. O=C(NCc1ccc(S(=O)(=O)c2ccc(F)c(F)c2)cc1)c1cc2cnccc2[nH]1
3. CCc1ccccc1S(=O)(=O)c1ccc(CNC(=O)c2cc3ccncc3o2)cc1
4. CCCOc1cccc(F)c1S(=O)(=O)c1ccc(CNC(=O)c2ccc3nccn3c2)cc1

Data returned:
[8.05, 7.89, 8.27, 7.04]

Dear colleague, could you please provide pIC50 for the compounds listed below?
1. O=C(NCc1ccc(S(=O)(=O)c2ccccc2)cc1)c1cc2ccncc2s1
2. Cc1ccc(S(=O)(=O)c2ccc(CNC(=O)c3cc4ccncc4o3)cc2)c(Cl)c1
3. O=C(NCc1ccc(S(=O)(=O)c2cccc(F)c2)cc1)c1cc2ccncc2o1
4. O=C(NCc1ccc(S(=O)(=O)c2cccc(Cl)c2)cc1)c1cc2ncccc2[nH]1
5. O=C(NCc1ccc(S(=O)(=O)c2cc(F)ccc2Cl)cc1)c1cc2ccncc2s1

Data returned:
7.96
7.85
8.24
8.41
8.38

Dear colleague, could you please provide pIC50 for the compounds listed below?
1. COc1ccc(F)cc1S(=O)(=O)c1ccc(CNC(=O)c2cc3cnccc3[nH]2)cc1
2. CCOc1ccccc1S(=O)(=O)c1ccc(CNC(=O)c2cc3ccncc3s2)cc1
3. COc1ccc(C(C)(C)C)cc1S(=O)(=O)c1ccc(CNC(=O)c2cc3ccncc3s2)cc1
4. Cc1cc(C)cc(S(=O)(=O)c2ccc(CNC(=O)c3cnc4nccn4c3)cc2)c1
5. COc1c(F)cccc1S(=O)(=O)c1ccc(CNC(=O)c2cnc3nccn3c2)cc1
6. O=C(NCc1ccc(S(=O)(=O)c2cc(Cl)cc(Cl)c2)cc1)c1cnc2[nH]ncc2c1
7. CCCCOc1ccc(S(=O)(=O)c2ccc(CNC(=O)c3cc4ccncc4o3)cc2)c(C)c1

Data returned:
8.30
8.70
7.82
8.77
7.54
8.17
7.80

Dear colleague, could you please provide pIC50 for the compounds listed below?
1. COc1cccc(S(=O)(=O)c2ccc(CNC(=O)c3cnc4[nH]ncc4c3)cc2)c1F
2. Cc1ccc(Cl)cc1S(=O)(=O)c1ccc(CNC(=O)c2ccc3nccn3c2)cc1
3. O=C(NCc1ccc(S(=O)(=O)c2ccccc2)cc1)c1cc(-c2ccccn2)n[nH]1
4. Cc1cc(Cl)cc(S(=O)(=O)c2ccc(CNC(=O)c3cnc4nccn4c3)cc2)c1
5. COc1cc(C)cc(OC)c1S(=O)(=O)c1ccc(CNC(=O)c2cc3ccncc3o2)cc1
6. COc1cc(Cl)cc(S(=O)(=O)c2ccc(CNC(=O)c3cc4ccncc4s3)cc2)c1
7. O=C(NCc1ccc(S(=O)(=O)c2ccc(Cl)cc2)cc1)c1cc2ccncc2o1
8. Cc1ccc(S(=O)(=O)c2ccc(CNC(=O)c3cc4ccncc4s3)cc2)cc1Cl

Data returned:
[8.07, 8.72, 5.13, 8.32, 8.30, 8.39, 8.31, 8.29]

Dear colleague, could you please provide pIC50 for the compounds listed below?
1. Cc1cc(Cl)ccc1S(=O)(=O)c1ccc(CNC(=O)c2cnc3nccn3c2)cc1
2. COc1ccc(S(=O)(=O)c2ccc(CNC(=O)c3cc4cnccc4[nH]3)cc2)cc1
3. O=C(NCc1ccc(S(=O)(=O)c2cccc(Cl)c2)cc1)c1cnc2[nH]ncc2c1
4. COc1cc(F)ccc1S(=O)(=O)c1ccc(CNC(=O)c2cc3ccncc3o2)cc1

Data returned:
8.18
7.96
8.15
7.90

Dear colleague, could you please provide pIC50 for the compounds listed below?
1. O=C(NCc1ccc(S(=O)(=O)Nc2ccccc2N2CCCCC2)cc1)c1cc2cnccc2[nH]1
2. COc1cccc(S(=O)(=O)c2ccc(CNC(=O)c3cnc4nccn4c3)cc2)c1OC

Data returned:
[7.14, 7.75]

Dear colleague, could you please provide pIC50 for the compounds listed below?
1. COc1c(Cl)ccc(S(=O)(=O)c2ccc(CNC(=O)c3ccc4nccn4c3)cc2)c1Cl
2. Cc1ccc(S(=O)(=O)c2ccc(CNC(=O)c3cc4ccncc4s3)cc2)c(F)c1
3. CC(=O)c1ccc(S(=O)(=O)c2ccc(CNC(=O)c3cc4cnccc4[nH]3)cc2)cc1
4. COc1ccc(F)cc1S(=O)(=O)c1ccc(CNC(=O)c2cc3ccncc3o2)cc1

Data returned:
7.51
8.10
8.15
8.66
